Test system: A549
protocol: NCI tumour cell line growth inhibition, 48 h
Activity calls are given as the source filed them. No stated cut-off is given here; in the data, active = GI50 up to about 1.1 µM and inactive = higher.
Hi there, I'd appreciate the recorded GI50 for every entry that follows.

Q: Please report the recorded GI50 for `C/C(=N/NC(=S)N1CCCCC1)c1ccccc1O` .
Result: > 31.6 µM (inactive)

Q: Let us now turn to `C#Cc1cccc(N2C(=O)c3c(c(-c4ccccc4)c(-c4ccc(Cc5ccc(-c6c(-c7ccccc7)c7c(c(-c8ccccc8)c6-c6ccccc6)C(=O)N(c6cccc(C#C)c6)C7=O)cc5)cc4)c(-c4ccccc4)c3-c3ccccc3)C2=O)c1`
Result: 24.4 µM (inactive)

Q: Also `COc1cc(/C=C2\N=C(c3ccccc3)N(c3nc4ccc(Sc5ccccc5)cc4[nH]3)C2=O)cc(OC)c1OC` ?
Result: 34.3 µM (inactive)

Q: Now consider CCOC(=O)N1C=NC23C(c4ccccc4)C(c4ccccc4)C12C(=O)N(C)C(=O)N3C (stereo not given) .
Result: > 100 µM (inactive)

Q: Entry to check: `Cc1ccc(C(=O)/C=C/c2cccc([N+](=O)[O-])c2)cc1`
Result: > 100 µM (inactive)

Source: ChEMBL document CHEMBL1201862
